Biological target: human activated protein C (human, UniProt P04070 43-197; P04070 212-461)
Assay: cell-based or functional assay
MEASURE NAME: Mean clotting time (s), FIX-deficient plasma, APC-antibody concentration 1 ug/ml

[
  {
    "BINDER": "HAPC-14-3 (antibody, V domains shown, Whole IgG, backbone hIgG1; also called HPAC 14-3; No. 3) VH: EVQLVESGGGLVQPGGSLRLSCAASGFTFSFYYLNWVRQAPGKGLEWVGDIRLKKNNYEKHYAESVKGRFTISRDDSKSITYLQMNSLRAEDTAVYYCAREGDYFDYWGQGTTVTVSS VL: DIQLTQSPSSLSASVGDRVTITCRASESVDSFGATFMHWYQQKPGKAPKLLIYLASRLGSGVPSRFSGSGSGTDFTLTISSLQPEDFATYYCVQNNEDPYTFGQGTKLEIK",
    "ENDPOINT UNIT": "s",
    "REPORTED MEASUREMENT": 200
  },
  {
    "BINDER": "HAPC-14-4 (antibody, V domains shown, Whole IgG, backbone hIgG1; also called HPAC 14-4) VH: EVQLVESGGGLVQPGGSLRLSCAASGFTFSFYYLNWVRQAPGKGLEWVGDIRLKSNNYEKHYAESVKGRFTISRDDSKSITYLQMNSLRAEDTAVYYCAREGDYFDYWGQGTTVTVSS VL: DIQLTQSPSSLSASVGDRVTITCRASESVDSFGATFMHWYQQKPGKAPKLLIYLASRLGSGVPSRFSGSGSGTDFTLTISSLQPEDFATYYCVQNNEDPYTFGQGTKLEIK",
    "ENDPOINT UNIT": "s",
    "REPORTED MEASUREMENT": 194
  },
  {
    "BINDER": "Humanized antibody 13 (HAPC-13) (antibody, V domains shown, also called Humab001-13; NO; 13 antibody) VH: EVQLVESGGGLVQPGGSLRLSCAASGFTFSNYYLNWVRQAPGKGLEWVGDIRLKSNNYEKHYAESVKGRFTISRDDSKSITYLQMNSLRAEDTAVYYCAREGDYFDYWGQGTTVTVSS VL: DIQMTQSPSSLSASVGDRVTITCRASESVDSFGATFMHWYQQKPGKAPKLLIYLASNLESGVPSRFSGSGSGTDFTLTISSLQPEDFATYYCQQNNEDPYTFGQGTKLEIK",
    "ENDPOINT UNIT": "s",
    "REPORTED MEASUREMENT": 402
  },
  {
    "BINDER": "Humanized antibody 14 (HAPC-14) (antibody, V domains shown, also called Humab001-14; NO; 14 antibody) VH: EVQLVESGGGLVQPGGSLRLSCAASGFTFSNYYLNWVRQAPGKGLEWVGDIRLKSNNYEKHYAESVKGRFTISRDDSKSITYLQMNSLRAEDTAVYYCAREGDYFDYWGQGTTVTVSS VL: DIQLTQSPSSLSASVGDRVTITCRASESVDSFGATFMHWYQQKPGKAPKLLIYLASNLESGVPSRFSGSGSGTDFTLTISSLQPEDFATYYCQQNNEDPYTFGQGTKLEIK",
    "ENDPOINT UNIT": "s",
    "REPORTED MEASUREMENT": 415
  },
  {
    "BINDER": "HAPC-14-1 (antibody, V domains shown, Whole IgG, backbone hIgG1; also called HPAC14-1) VH: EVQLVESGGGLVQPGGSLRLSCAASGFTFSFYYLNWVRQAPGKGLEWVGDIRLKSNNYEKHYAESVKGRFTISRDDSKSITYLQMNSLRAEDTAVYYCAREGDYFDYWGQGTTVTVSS VL: DIQLTQSPSSLSASVGDRVTITCRASESVDSFGATFMHWYQQKPGKAPKLLIYLASWLGSGVPSRFSGSGSGTDFTLTISSLQPEDFATYYCQQNNEDPYTFGQGTKLEIK",
    "ENDPOINT UNIT": "s",
    "REPORTED MEASUREMENT": 195
  }
]
